# Tested on: SW684
# METHOD SUMMARY: relative viability vs DMSO control (72 h) (fraction); higher = more viable cells
# MEASUREMENT PARAMETERS: 0.01372 µM
PARAMETER: relative viability
Please state the value as a number alone, without comment.

Some solved cases for reference:
smiles_notation=CNC(=O)c1ccc(-c2cnc3ncc(Cc4ccc5ncccc5c4)n3n2)cc1F reading=1.12
smiles_notation=CNC(=O)c1cc(Oc2ccc(NC(=O)Nc3ccc(Cl)c(C(F)(F)F)c3)c(F)c2)ccn1 reading=1.21

Let us examine a further case.
Query C=CC(=O)N1CCC[C@@H](n2nc(-c3ccc(Oc4ccccc4)cc3)c3c(N)ncnc32)C1 yields relative viability of 1.17
